Origin of the recorded values: the supplement of paper PMC6757056

B1: library; a variant is named by its letters at N, in order (parent)
chain: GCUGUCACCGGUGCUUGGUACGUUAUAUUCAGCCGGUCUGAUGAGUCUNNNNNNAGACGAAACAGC

variants of: B1; assay: normalized RNA/DNA level with ligand (relative to sTRSVctl = 100) (log10 (% of sTRSVctl)); HEK293T overexpressing SLC46A1; ligand concentration (+) RNA-Seq: 6 mM; higher = less ribozyme self-cleavage, higher mRNA level; conditions: with (6R,S)-folinic acid; ligand present: yes
measured_attribute: normalized RNA/DNA level with ligand (log10)

{"columns": ["mutations", "value_measured"],
 "data": [
  ["AUUGCC", 2.02],
  ["UCCCCA", 2.04],
  ["UACGCC", 2.07],
  ["CCCCGA", 2.02],
  ["CUCUCG", 2.01],
  ["UGCGGC", 1.98],
  ["AAACCA", 2],
  ["CUCGUG", 2.01],
  ["ACUCGU", 1.98],
  ["AUGGAG", 1.97],
  ["AGUCUC", 2.02],
  ["AAAUUG", 2.02],
  ["AAGUAG", 1.99],
  ["GCGGUU", 2.02],
  ["GGCGUG", 2.06],
  ["UCGGCU", 2.06],
  ["GUGUUU", 2.05],
  ["AUGUCA", 2.01],
  ["UGCACG", 1.98],
  ["AUAGUG", 1.93],
  ["UUCUGG", 2.03],
  ["UAGAAA", 2.01]
]}
